assay name: Pharmacokinetic analysis, plasma and brain levels
Type: in vivo
experimental parameters: male, Crl:CD1 (ICR), mouse, ip; plasma, single intraperitoneal injection 30 mg/kg, ICR mice, n = 3
assay endpoint: Cmax (nM)
Output spec: scalar in nM, unitless text.

Prompt: Name the reported Cmax value associated with the compound NC1CCC(NC2CC2c2cc(F)cc(F)c2OCc2ccccc2)CC1 (stereo not shown) [S2172]
Completion: 1200

###

assay name: Pharmacokinetic analysis, plasma and brain levels
Type: in vivo
experimental parameters: male, Crl:CD1 (ICR), mouse, brain, ip; single intraperitoneal injection 30 mg/kg, ICR mice, n = 3; read-out: Brain concentration at 0.5 hr
Experimental: Male Crl:CD1 (ICR) mice from […], Japan (8 weeks old, n = 3) received a single intraperitoneal injection of S2172 at 30 mg/kg in 5 mL/kg of 15% DMSO/17.5% Cremophor EL/8.75% Ethanol/8.75% HCO-40/50% PBS. Serial blood sampling was conducted from the jugular vein at 0.25, 0.5, 1, 2, 4, and 6 hr time points. […] Pharmacokinetic parameters were calculated using Moment method analysis.
assay endpoint: concentration at 0.5 hr (µM)
Output spec: scalar in µM, unitless text.

Prompt: Name the reported concentration at 0.5 hr value associated with the compound NC1CCC(NC2CC2c2cc(F)cc(F)c2OCc2ccccc2)CC1 (stereo not shown)
Completion: 1.52

###

assay name: Pharmacokinetic analysis, plasma and brain levels
Format: in vivo
experimental parameters: male, Crl:CD1 (ICR), mouse, plasma, ip; single intraperitoneal injection 30 mg/kg, ICR mice, n = 3; read-out: Plasma concentration at 0.5 hr
Method: Male Crl:CD1 (ICR) mice from […], Japan (8 weeks old, n = 3) received a single intraperitoneal injection of S2172 at 30 mg/kg in 5 mL/kg of 15% DMSO/17.5% Cremophor EL/8.75% Ethanol/8.75% HCO-40/50% PBS. Serial blood sampling was conducted from the jugular vein at 0.25, 0.5, 1, 2, 4, and 6 hr time points. […] Pharmacokinetic parameters were calculated using Moment method analysis.
assay endpoint: concentration at 0.5 hr (nM)
Output spec: scalar in nM, unitless text.

Prompt: Name the reported concentration at 0.5 hr value associated with the molecule NC1CCC(NC2CC2c2cc(F)cc(F)c2OCc2ccccc2)CC1 (stereo not shown)
Completion: 750

###

tested on: MAO-A (Homo sapiens, UniProt P21397)
Sequence (P21397 whole entry, species assumed): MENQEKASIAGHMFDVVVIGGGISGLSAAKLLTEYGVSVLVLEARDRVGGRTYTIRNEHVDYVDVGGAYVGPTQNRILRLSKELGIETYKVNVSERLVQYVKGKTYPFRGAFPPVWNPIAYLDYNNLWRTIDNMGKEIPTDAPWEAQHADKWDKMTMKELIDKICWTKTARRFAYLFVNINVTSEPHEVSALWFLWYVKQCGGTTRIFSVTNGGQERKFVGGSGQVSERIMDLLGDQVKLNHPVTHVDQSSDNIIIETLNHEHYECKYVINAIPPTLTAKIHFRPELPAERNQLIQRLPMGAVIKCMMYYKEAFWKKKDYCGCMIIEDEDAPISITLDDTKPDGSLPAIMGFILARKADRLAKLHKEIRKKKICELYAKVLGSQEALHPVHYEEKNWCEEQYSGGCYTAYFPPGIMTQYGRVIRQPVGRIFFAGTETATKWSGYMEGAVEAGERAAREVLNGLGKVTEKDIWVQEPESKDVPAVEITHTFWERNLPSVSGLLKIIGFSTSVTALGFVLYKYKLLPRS
assay name: Enzyme inhibition assay (in vitro peroxidase assay) against MAO-A
assay endpoint: Ki

Prompt: Name the reported Ki value associated with the compound NC1CCC(NC2CC2c2cc(F)cc(F)c2OCc2ccccc2)CC1 (stereo not shown)
Completion: > 250 µM
